Property: fractional inhibitory concentration index (FICI); scope: individual compounds
Test system: Mycolicibacterium smegmatis
Assay: Antimycobacterial against Mycobacterium smegmatis in presence of 25-desacetylrifampicin
Format: functional
readoutType: fractional inhibitory concentration index (FICI)

> print(dat)
                                   compound  measvalue
1             CNCCCN1c2ccccc2Sc2ccc(Cl)cc21        0.5
2          CN(C)CCCN1c2ccccc2Sc2ccc(Cl)cc21        0.5
3  CN(C)CCCN1c2ccc(O)cc2Sc2ccc(Cl)cc21 [7-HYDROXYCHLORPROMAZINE]       0.75
4  C[N+](C)([O-])CCCN1c2ccccc2Sc2ccc(Cl)cc21       0.75

====

Tested on: Mycolicibacterium smegmatis
Assay: Antimycobacterial against Mycobacterium smegmatis in presence of spectinomycin
Type: functional
# key: entry, value: fractional inhibitory concentration index (FICI)
readoutType: fractional inhibitory concentration index (FICI)

> print(dat)
                                   compound  measvalue
1  CNCCCN1c2ccccc2Sc2ccc(Cl)cc21 [NOR1-CHLORPROMAZINE]       0.31
2  C[N+](C)([O-])CCCN1c2ccccc2Sc2ccc(Cl)cc21       0.63
3  CN(C)CCCN1c2ccc(O)cc2Sc2ccc(Cl)cc21 [7-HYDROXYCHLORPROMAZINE]       0.19
4  CN(C)CCCN1c2ccccc2Sc2ccc(Cl)cc21 [CHLORPROMAZINE]       0.31
